Test summary: NCI Yeast Anticancer Drug Screen. Data for the bub3 strain (AID 167)
Experimental parameters: S. cerevisiae bub3 mutant strain, at 50.0 µM, hits give high values
The panel holds about 79,000 compounds, 15% with a hit somewhere; the sample as a whole holds those more often.
Attribute measured: growth inhibition (%)
Answers are plain numbers, in %.

CN1NC(c2ccccc2)NN(C)C1=S = -4.45

// input: 8 molecules below; output: growth inhibition for each
1. COC1OC2COC1(OCc1ccccc1)C1OC(C)(C)OC21 (stereo unspecified)
2. CC(C)(C)C(=O)Oc1ccc(/C=C/C(=O)c2ccc(OC(=O)C(C)(C)C)cc2)cc1
3. CCN(CC)CCCNc1ncc(C)c2[nH]c3ccncc3c12
4. CC1(C)C2(SCCS2)C(C)(C)C12SCCS2
5. Cc1ccc(S(=O)(=O)NNC(=O)c2cc(C(=O)NNS(=O)(=O)c3ccc(C)cc3)c(C)nc2C)cc1
6. CCOC(=O)CCC1(C)OCC(O)CO1 (stereo unspecified) (tested in a mixture with another compound)
7. O=C1CN(c2ccccc2)Cc2nc(Cl)ccc2N1
8. CCOC(=O)/C(=N/Nc1ccc(C)cc1)N1C(=S)C=C(C)NN(C)C1=S

-26.2
-22.9
-0.25
11.4
8.3
-16.6
3.55
-19.7

Provide each entry's growth inhibition from the list below.
1. COC1/C=C/OC2(C)Oc3c(C)c(O)c4c(O)c(c5c(nc(-c6ccco6)n5-c5ccccc5)c4c3C2=O)NC(=O)/C(C)=C\C=C\C(C)C(O)C(C)C(O)C(C)C(OC(C)=O)C1C (stereo unspecified)
2. O=C(/C=C/c1ccc2c(c1)OCO2)c1cccc2ccccc12
3. O=c1[nH]cc(Cl)cc1Cl
4. CC1(C)C(=O)CC[C@]2(C)[C@H]3C(=O)C=C4[C@H]5C[C@@](C)(C(=O)O)CC[C@]5(C)CC[C@@]4(C)[C@]3(C)CC[C@@H]12

1. -18.8
2. -3
3. 2.3
4. 0.15

Respectfully, I request growth inhibition for each entry included below.
1. COc1cc(Cc2c(OC)c(OC)cc(C)c2C(=O)O)cc(OC)c1
2. CC(=O)Oc1cc2c(cc1C(NC(N)=O)c1ccc3c(c1)OCO3)OCO2 (stereo unspecified)
3. CN1CCc2ccccc2/C(=C(/O)c2ccccc2)C1=O
4. CCC(C)N(C(C)=O)C(C)CC (stereo unspecified)
5. CC(C)CCC(=S)N1CCN(c2ccccc2)CC1
6. CCCC(=O)Nc1ccccc1
7. CC1=NOC(=O)/C1=C/c1ccccc1C
8. COc1ccc2cc(NC(=O)N/N=C\c3ccc(Cl)cc3)ccc2c1

[-13.9, 16.4, 13.3, 2, 2.05, -4.75, 17.4, 27]

Values from PubChem BioAssay (NCI)
